Tested on: Phosphorylated Ribosomal Protein S6 (RPS6) in THP-1 cells
Assay: THP-1 RPS6 ELISA assay
Format: cell-based, human
Conditions: Homo sapiens, THP-1, THP-1 cells, 10 nM MCP-1; read-out: PI3Kγ_THP1_RPS6_ELISA IC50
Counter-ions that a name gives are not always drawn.
outcome-measure: IC50

// solved cases for IC50 follow
compound	IC50
CC(NC(=O)c1c(N)nn2cccnc12)c1cc(Cl)c2cncn2c1N1CCC(O)C1 (centres unmarked) [Example 148, trifluoroacetate salt]	< 500 nM
CCC(NC(=O)c1c(N)nn2cccnc12)c1cc(Cl)c2c(C#N)ncn2c1N1CCS(=O)(=O)C(C)C1 (centres unmarked) [Example 175, trifluoroacetate salt]	< 500 nM
Nc1nn2cccnc2c1C(=O)NCc1cc(Cl)c2cncn2c1N1CCS(=O)(=O)CC1 [Example 166, trifluoroacetate salt]	< 1000 nM

Req: # get_value(readout='IC50', item= Nc1nn2cccnc2c1C(=O)NC(c1cc(Cl)c2cncn2c1N1CCS(=O)(=O)CC1)C1CC1 (racemic) [Example 182, trifluoroacetate salt] )
Resp: < 500 nM

Req: Same again, this time with COC(=O)C1CCN(c2c(C(C)NC(=O)c3c(N)nn4cccnc34)cc(Cl)c3cn[nH]c23)C1 (centres unmarked) [Example 102, trifluoroacetate]
Resp: > 1000 nM

Req: Same again, this time with CC(NC(=O)c1c(N)nn2cccnc12)c1cc(Cl)c2c(C#N)cnn2c1N1CCC[C@H](O)C1 (some centres unmarked) [Example 61, trifluoroacetate]
Resp: < 1000 nM

Req: Same again, this time with COC1CCN(c2c(C(C)NC(=O)c3c(N)nn4cccnc34)cc(Cl)c3cncn23)CC1 (racemic) [Example 143]
Resp: < 1000 nM

Req: Same again, this time with CC(NC(=O)c1c(N)nn2cccnc12)c1cc(Cl)c2cncn2c1N1CCS(=O)(=O)CC1 (centres unmarked) [Example 36, trifluoroacetate salt]
Resp: < 500 nM

Req: Same again, this time with CC(NC(=O)c1c(N)nn2cccnc12)c1cc(Cl)c2ccnn2c1N1CCC(C#N)CC1 (centres unmarked) [Example 56, trifluoroacetate]
Resp: < 500 nM

Req: Same again, this time with CC(NC(=O)c1c(N)nn2cccnc12)c1cc(Cl)c2cn[nH]c2c1N1CCC(O)C1 (single isomer, unassigned) [Example 90B, bis(trifluoroacetate)]
Resp: < 500 nM

Req: Same again, this time with CC(NC(=O)c1c(N)nn2cccnc12)c1cc(Cl)c2cncn2c1-c1cccnc1 (racemic) [Example 127, trifluoroacetate salt]
Resp: < 500 nM

====

Each entry below lists one item and its recorded IC50 value.
Test system: Phosphorylated Ribosomal Protein S6 (RPS6) in THP-1 cells
Assay: THP-1 RPS6 ELISA assay
Assay type: cell-based, human
Conditions: Homo sapiens, THP-1, THP-1 cells, 10 nM MCP-1; read-out: PI3Kγ_THP1_RPS6_ELISA IC50
Where a name gives a salt, the structure may show the parent alone.

// solved cases for IC50 follow
compound	recorded-measurement
COC1CC=C(c2c(C(C)NC(=O)c3c(N)nn4cccnc34)cc(Cl)c3cn[nH]c23)CC1 (stereo not shown) [Example 100, trifluoroacetate]	> 1000 nM
CC(NC(=O)c1c(N)nn2cccnc12)c1cc(Cl)c2c(Cl)ncn2c1N1CCS(=O)(=O)CC1 (racemic) [Example 162, trifluoroacetate salt]	< 500 nM

Req: # get_value(readout='IC50', item= Cc1nc(C#N)c2c(Cl)cc(C(C)NC(=O)c3c(N)nn4cccnc34)c(-c3ccccc3)n12 (racemic) [Example 125, trifluoroacetate salt] )
Resp: < 500 nM

====

Each entry below lists one item and its recorded IC50 value.
Target: PI3Kγ (p110γ) Recombinant Human Protein (Homo sapiens (Human))
Sequence (P48736 whole entry): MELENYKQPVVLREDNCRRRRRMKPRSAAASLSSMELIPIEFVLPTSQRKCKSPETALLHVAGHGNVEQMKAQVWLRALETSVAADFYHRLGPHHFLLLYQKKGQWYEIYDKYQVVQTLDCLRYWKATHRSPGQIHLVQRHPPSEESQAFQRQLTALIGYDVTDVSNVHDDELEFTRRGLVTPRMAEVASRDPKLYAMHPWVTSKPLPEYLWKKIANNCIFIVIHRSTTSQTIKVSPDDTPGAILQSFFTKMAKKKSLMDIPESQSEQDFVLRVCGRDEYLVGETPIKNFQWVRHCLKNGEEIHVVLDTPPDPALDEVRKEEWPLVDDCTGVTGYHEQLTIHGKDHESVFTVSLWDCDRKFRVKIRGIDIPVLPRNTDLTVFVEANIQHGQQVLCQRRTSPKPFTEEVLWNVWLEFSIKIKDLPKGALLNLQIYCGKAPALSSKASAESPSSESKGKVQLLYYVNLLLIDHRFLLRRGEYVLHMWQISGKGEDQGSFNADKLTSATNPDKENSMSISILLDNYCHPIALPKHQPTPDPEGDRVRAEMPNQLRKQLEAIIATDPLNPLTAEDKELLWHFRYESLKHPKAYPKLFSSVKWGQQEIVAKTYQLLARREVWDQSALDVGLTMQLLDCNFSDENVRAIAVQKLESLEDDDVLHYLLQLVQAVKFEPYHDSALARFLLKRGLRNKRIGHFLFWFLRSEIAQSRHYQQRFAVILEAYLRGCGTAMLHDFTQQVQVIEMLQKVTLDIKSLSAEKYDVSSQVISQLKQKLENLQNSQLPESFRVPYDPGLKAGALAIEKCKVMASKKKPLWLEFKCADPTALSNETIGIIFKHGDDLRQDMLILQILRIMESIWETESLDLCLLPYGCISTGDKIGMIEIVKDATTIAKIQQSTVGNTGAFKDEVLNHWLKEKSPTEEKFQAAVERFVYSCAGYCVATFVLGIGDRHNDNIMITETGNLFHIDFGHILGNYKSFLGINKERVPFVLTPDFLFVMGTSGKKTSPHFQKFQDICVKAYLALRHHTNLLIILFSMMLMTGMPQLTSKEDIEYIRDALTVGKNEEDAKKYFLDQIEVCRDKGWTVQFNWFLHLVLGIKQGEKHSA
Assay: PI3K-γ scintillation proximity assay
Details: 2 μM ATP, 20 μM PIP2
Structures can show the parent of a compound that is named as a salt.

// solved cases for IC50 follow
compound	recorded-measurement
Cc1ncc2c(Cl)cc(C(C)NC(=O)c3c(N)nn4cccnc34)c(-c3cn[nH]c3)n12 (racemic) [Example 118, trifluoroacetate salt]	< 100 nM
CC1CN(c2c(CNC(=O)c3c(N)nn4cccnc34)cc(Cl)c3c(Cl)ncn23)CCS1(=O)=O (racemic) [Example 169, trifluoroacetate salt]	< 100 nM
CC1(C)CN(c2c(CNC(=O)c3c(N)nn4cccnc34)cc(Cl)c3cncn23)CCS1(=O)=O [Example 168, trifluoroacetate salt]	< 100 nM

Req: # get_value(readout='IC50', item= CC(=O)N[C@H]1CCN(c2c(C(C)NC(=O)c3c(N)nn4cccnc34)cc(Cl)c3cn[nH]c23)C1 (some centres unmarked) [Example 95, trifluoroacetate] )
Resp: < 100 nM

Req: Same again, this time with CCOc1c(C(C)NC(=O)c2c(N)nn3cccnc23)cc(Cl)c2cn(Cc3ccccc3)nc12 (centres unmarked) [Example 8a, trifluoroacetate]
Resp: < 2000 nM

====

Test system: Phosphorylated Ribosomal Protein S6 (RPS6) in THP-1 cells
Test: THP-1 RPS6 ELISA assay
Format: cell-based, human
Details: Homo sapiens, THP-1, THP-1 cells, 10 nM MCP-1; read-out: PI3Kγ_THP1_RPS6_ELISA IC50
pIC50: −log10 of the molar value. Counter-ions that a name gives are not always drawn.
Each entry below lists one item and its recorded pIC50 value.

// solved cases for pIC50 follow
compound	pIC50
CC(NC(=O)c1c(N)nn2cccnc12)c1cc(Cl)c2cncn2c1N1CCC2(CC1)CNC(=O)O2 (centres unmarked) [Example 80, trifluoroacetate]	> 6.30
Nc1nn2cccnc2c1C(=O)NC(c1cc(Cl)c2cncn2c1N1CCS(=O)(=O)CC1)C(F)(F)F (racemic) [Example 180, trifluoroacetate salt]	> 6.30
CC(NC(=O)c1c(N)nn2cccnc12)c1cc(Cl)c2cncn2c1N1CCC[C@H]1C (some centres unmarked) [Example 71A, bistrifluoroacetate]	> 6.00
N#Cc1ncn2c(N3CCCC3)c(CNC(=O)c3c(N)nn4cccnc34)cc(Cl)c12 [Example 173, trifluoroacetate salt]	< 6.00
CC1CN(c2c(C(NC(=O)c3c(N)nn4cccnc34)C3CC3)cc(Cl)c3c(C#N)ncn23)CCS1(=O)=O (centres unmarked) [Example 176, trifluoroacetate salt]	> 6.30
CC1CN(c2c(CNC(=O)c3c(N)nn4cccnc34)cc(Cl)c3c(Cl)ncn23)CCS1(=O)=O (racemic) [Example 169, trifluoroacetate salt]	> 6.30
CC(NC(=O)c1c(N)nn2cccnc12)c1cc(Cl)c2cncn2c1N1CCC(O)CC1 (racemic) [Example 146, trifluoroacetate salt]	> 6.30

Let's switch to this compound now.
Req: # get_value(readout='pIC50', item= CC(NC(=O)c1c(N)nn2cccnc12)c1cc(Cl)c2cncn2c1N1CCN(C)C(=O)C1 (racemic) [Example 154, trifluoroacetate salt] )
Resp: > 6.00

====

Each entry below lists one item and its recorded IC50 value.
System: Phosphorylated Ribosomal Protein S6 (RPS6) in THP-1 cells
Assay: THP-1 RPS6 ELISA assay
Format: cell-based, human
Conditions: Homo sapiens, THP-1, THP-1 cells, 10 nM MCP-1; read-out: PI3Kγ_THP1_RPS6_ELISA IC50
Where a name gives a salt, the structure may show the parent alone.

molecule	outcome-measure	recorded-measurement
CC(NC(=O)c1c(N)nn2cccnc12)c1cc(Cl)c2cncn2c1N1CCC(C#N)C1 (racemic) [Example 32, trifluoroacetate salt]	IC50	< 500 nM
COCCOc1c(C(C)NC(=O)c2c(N)nn3cccnc23)cc(Cl)c2cn[nH]c12 (stereo not shown) [Example 81, trifluoroacetate]	IC50	< 500 nM
CC(NC(=O)c1c(N)nn2cccnc12)c1cc(Cl)c2cncn2c1-c1cnccn1 (racemic) [Example 138, trifluoroacetate salt]	IC50	< 1000 nM

Let's switch to this molecule now.
Req: # get_value(readout='IC50', item= CC(NC(=O)c1c(N)nn2cccnc12)c1cc(Cl)c2cncn2c1N1CCS(=N)(=O)CC1 (stereo not shown) )
Resp: < 500 nM

====

Each entry below lists one item and its recorded pIC50 value.
Target: PI3Kδ (p110δ/p85α) Recombinant Human Protein (Homo sapiens (Human), UniProt O00329)
Sequence (O00329 whole entry): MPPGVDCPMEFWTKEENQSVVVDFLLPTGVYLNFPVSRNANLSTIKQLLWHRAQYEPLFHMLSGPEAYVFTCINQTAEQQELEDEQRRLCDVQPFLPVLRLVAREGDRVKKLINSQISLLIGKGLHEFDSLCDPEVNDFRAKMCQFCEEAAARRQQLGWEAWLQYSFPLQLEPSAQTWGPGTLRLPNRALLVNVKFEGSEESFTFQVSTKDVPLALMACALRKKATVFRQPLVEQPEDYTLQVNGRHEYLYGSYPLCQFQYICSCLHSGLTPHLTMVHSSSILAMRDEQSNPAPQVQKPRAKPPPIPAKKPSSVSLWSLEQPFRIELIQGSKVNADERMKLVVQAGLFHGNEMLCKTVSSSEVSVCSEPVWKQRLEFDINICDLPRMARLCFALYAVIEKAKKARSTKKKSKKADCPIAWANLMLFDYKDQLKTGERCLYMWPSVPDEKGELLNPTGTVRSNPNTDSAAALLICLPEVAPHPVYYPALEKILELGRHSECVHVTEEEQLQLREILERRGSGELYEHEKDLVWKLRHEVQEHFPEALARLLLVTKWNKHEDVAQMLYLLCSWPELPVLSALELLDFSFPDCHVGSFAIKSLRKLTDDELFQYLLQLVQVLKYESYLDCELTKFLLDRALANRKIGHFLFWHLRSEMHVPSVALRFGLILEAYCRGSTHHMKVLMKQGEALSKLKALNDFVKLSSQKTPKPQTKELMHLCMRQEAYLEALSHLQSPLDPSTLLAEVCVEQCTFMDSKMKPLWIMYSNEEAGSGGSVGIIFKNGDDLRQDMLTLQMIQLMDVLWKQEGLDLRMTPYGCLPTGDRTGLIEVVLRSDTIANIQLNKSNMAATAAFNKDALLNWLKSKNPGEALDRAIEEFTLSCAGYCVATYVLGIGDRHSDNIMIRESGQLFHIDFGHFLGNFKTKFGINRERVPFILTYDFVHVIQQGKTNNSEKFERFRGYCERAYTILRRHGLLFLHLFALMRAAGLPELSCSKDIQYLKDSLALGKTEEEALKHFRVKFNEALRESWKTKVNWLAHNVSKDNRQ
Sequence (P27986 whole entry partner): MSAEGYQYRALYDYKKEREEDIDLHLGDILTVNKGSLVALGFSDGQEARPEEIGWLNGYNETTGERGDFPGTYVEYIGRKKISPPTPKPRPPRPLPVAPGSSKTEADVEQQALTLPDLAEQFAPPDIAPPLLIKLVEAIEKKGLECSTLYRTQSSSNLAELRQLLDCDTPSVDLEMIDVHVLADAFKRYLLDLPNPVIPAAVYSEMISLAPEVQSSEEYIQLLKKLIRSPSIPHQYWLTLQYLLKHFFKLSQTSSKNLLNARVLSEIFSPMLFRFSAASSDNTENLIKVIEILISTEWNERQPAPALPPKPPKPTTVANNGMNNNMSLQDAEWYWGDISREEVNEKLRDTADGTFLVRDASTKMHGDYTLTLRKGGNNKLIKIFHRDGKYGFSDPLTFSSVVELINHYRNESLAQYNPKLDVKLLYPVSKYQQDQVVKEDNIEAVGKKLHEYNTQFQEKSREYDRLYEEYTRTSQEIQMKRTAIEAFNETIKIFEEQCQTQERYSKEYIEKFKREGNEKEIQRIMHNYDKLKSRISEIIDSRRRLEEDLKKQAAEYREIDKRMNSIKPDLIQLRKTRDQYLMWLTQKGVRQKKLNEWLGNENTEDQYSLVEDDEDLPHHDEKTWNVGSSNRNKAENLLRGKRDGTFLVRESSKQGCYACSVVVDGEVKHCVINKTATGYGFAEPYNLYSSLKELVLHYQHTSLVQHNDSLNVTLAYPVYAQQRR
Test: PI3Kδ scintillation proximity assay
Format: biochemical
Conditions: 2 μM ATP, 20 μM PIP2
pIC50: −log10 of the molar value. Structures can show the parent of a compound that is named as a salt.

compound	pIC50
CC(NC(=O)c1c(N)nn2cccnc12)c1cc(Cl)c2c(Cl)cnn2c1N1CCCS(=O)(=O)CC1 (stereo not drawn) [Example 114, trifluoroacetate]	> 7.00
CC(NC(=O)c1c(N)nn2cccnc12)c1cc(Cl)c2c(Cl)cnn2c1N1CCS(=O)(=O)CC1 (stereo not drawn) [Example 113, trifluoroacetate]	> 7.00
Cc1ncc2c(Cl)cc(C(C)NC(=O)c3c(N)nn4cccnc34)c(-c3cnn(C)c3)n12 (racemic) [Example 119, trifluoroacetate salt]	> 6.30
CC(NC(=O)c1c(N)nn2cccnc12)c1cc(Cl)c2cncn2c1N1CCCC(C)(C#N)C1 (single isomer, unassigned) [Example 77B]	> 7.00
CC(NC(=O)c1c(N)nn2cccnc12)c1cc(Cl)c2cncn2c1N1CCC[C@H]1C (stereo partly drawn) [Example 71A, bistrifluoroacetate]	> 6.30

Req: # get_value(readout='pIC50', item= CC(NC(=O)c1c(N)nn2cccnc12)c1cc(Cl)c2cncn2c1N1CCS(=O)(=O)CC1C (stereo not drawn) [Example 38B, trifluoroacetate salt] )
Resp: > 7.00
